The measurements presented in this section are drawn from patent US8575158B2.

# IC50 listing for each entry below
EXPERIMENTAL TARGET: hCRTH2 receptor (Homo sapiens, UniProt Q9Y5Y4)
Construct: expressed in transfected cells; host or cells: HEK293
Sequence (Q9Y5Y4 whole entry): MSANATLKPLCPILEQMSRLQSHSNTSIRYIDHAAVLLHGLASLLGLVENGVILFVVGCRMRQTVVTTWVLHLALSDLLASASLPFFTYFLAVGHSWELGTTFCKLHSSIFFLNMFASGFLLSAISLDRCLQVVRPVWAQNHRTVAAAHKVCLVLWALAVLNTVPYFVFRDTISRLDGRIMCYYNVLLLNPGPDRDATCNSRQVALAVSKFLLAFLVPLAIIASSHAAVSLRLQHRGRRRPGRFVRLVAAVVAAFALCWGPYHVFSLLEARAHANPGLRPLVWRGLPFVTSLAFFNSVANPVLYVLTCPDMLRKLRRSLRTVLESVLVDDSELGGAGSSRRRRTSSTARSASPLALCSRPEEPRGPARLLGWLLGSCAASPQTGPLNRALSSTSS
ASSAY SUMMARY: Radioligand displacement assay (3H-PGD2) on hCRTH2 receptor membranes
Type: binding
RECORDED CONDITIONS: antagonistic activity, 3H-PGD2 radioligand displacement, HEK293-hCRTH2 membranes
Please state the number and follow it with the unit.

[in] Param item = O=C(O)COc1ccc(Cl)cc1[C@@H]1c2ccc(F)cc2CCN1C(=O)OCc1cccc(F)c1F [Example 354] ; retrieve measured IC50.
[out] 0.00772 µM

[in] Param item = O=C(O)COc1ccc(Cl)cc1C1c2ccccc2CCN1C(=O)CCn1ccc2ccc(C(F)(F)F)cc21 (racemic) [Example 370] ; retrieve measured IC50.
[out] 0.0806 µM

[in] Param item = Cc1ccc(OCC(=O)N2CCc3ccccc3C2c2cc(Cl)ccc2OCC(=O)O)cc1 (racemic) [Example 414] ; retrieve measured IC50.
[out] 0.126 µM
